Target: human glucagon receptor (Homo sapiens)
Construct: host or cells: human liver samples or a recombinant cell line (alternatives)
Sequence (P47871 26-477): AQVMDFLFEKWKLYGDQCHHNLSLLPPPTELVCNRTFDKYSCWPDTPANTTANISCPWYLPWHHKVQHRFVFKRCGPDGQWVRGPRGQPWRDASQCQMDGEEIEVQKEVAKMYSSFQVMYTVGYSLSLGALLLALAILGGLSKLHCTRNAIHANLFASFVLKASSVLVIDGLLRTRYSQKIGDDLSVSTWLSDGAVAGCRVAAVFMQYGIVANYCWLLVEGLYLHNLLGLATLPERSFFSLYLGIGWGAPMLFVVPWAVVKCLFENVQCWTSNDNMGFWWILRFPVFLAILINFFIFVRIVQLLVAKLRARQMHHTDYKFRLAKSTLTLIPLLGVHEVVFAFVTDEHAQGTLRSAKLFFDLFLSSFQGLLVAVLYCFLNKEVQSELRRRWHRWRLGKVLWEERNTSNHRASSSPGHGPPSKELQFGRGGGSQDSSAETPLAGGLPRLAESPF
Experiment: Human glucagon receptor affinity ([125I]glucagon displacement, membrane preparation)
Type: binding
Conditions: human glucagon receptor binding assay; stereo column says racemic or R-isomer; read-out: Hu IC50
pIC50: −log10 of the molar value.
Outcome: rule met for pIC50 of at least 8; rule not met for anything lower.

[
  {
    "compound": "Cc1cc(Cl)ccc1-c1ccc(NC(=O)C(Cc2ccc(C(=O)NCCS(=O)(=O)O)cc2)c2cccc(C3=CCC(C)(C)C=C3)c2)cc1 (racemic)",
    "measured on": "human glucagon receptor (Homo sapiens)",
    "label class": "rule not met"
  },
  {
    "compound": "CC12CCC(C=C1c1ccc(C(Cc3ccc(C(=O)NCCS(=O)(=O)O)cc3)C(=O)Nc3ccc(-c4nc5ccccc5o4)cc3)cc1)C2(C)C (racemic)",
    "measured on": "human glucagon receptor (Homo sapiens)",
    "label class": "rule not met"
  },
  {
    "compound": "CC(C)(C)c1ccc(-c2ccc(C(Cc3ccc(C(=O)NCCS(=O)(=O)O)cc3)C(=O)Nc3ccc(-c4c(Cl)cccc4Cl)cc3)cc2)cc1 (racemic)",
    "measured on": "human glucagon receptor (Homo sapiens)",
    "label class": "rule not met"
  },
  {
    "compound": "CC(C)(C)C1CCC(c2ccc(C(Cc3ccc(C(=O)NCCS(=O)(=O)O)cc3)C(=O)Nc3ccc(-c4ccc(Cl)cc4Cl)cc3)cc2)CC1 (racemic) [drawing 110]",
    "measured on": "human glucagon receptor (Homo sapiens)",
    "label class": "rule not met"
  },
  {
    "compound": "CC1(C)C=CC(c2cccc(C(Cc3ccc(C(=O)NCCS(=O)(=O)O)cc3)C(=O)Nc3ccc(-c4ccc(Cl)cc4Cl)cc3)c2)=CC1 (racemic)",
    "measured on": "human glucagon receptor (Homo sapiens)",
    "label class": "rule not met"
  },
  {
    "compound": "Cc1cc(C)c(-c2ccc(NC(=O)[C@H](Cc3ccc(C(=O)NCCS(=O)(=O)O)cc3)c3ccc(-c4ccc(C(C)(C)C)cc4)cc3)cc2)c(C)c1",
    "measured on": "human glucagon receptor (Homo sapiens)",
    "label class": "rule met"
  }
]
